src = patent US20120083522A1

test system: human Factor XI mRNA; assay: Dose-dependent inhibition in HepG2 cells, lipofectin (Example 4); type: cell-based; conditions: 37.5 nM, 16 hours
In the oligonucleotide strings, read from the 5' end, every base follows the letter of its sugar. An asterisk marks phosphorothioate; unmarked linkages are phosphodiester. Other units and linkages are bracketed, terminal groups are in braces. A string of capitals states the bases alone. e = 2'-O-(2-methoxyethyl) (MOE); [5mC] = 5-methylcytosine; d = 2'-deoxy (DNA)
A collection of substances and their measured percent inhibition of Factor XI mRNA, relative to untreated control cells
PROPERTY LABEL: percent inhibition of Factor XI mRNA, relative to untreated control cells (%)

[
  {
    "SUBSTANCE": "412206 (antisense e[5mC]*e[5mC]*eG*eT*eG*d[5mC]*dA*dT*d[5mC]*dT*dT*dT*d[5mC]*dT*dT*eG*eG*e[5mC]*eA*eT) [compound 412206]",
    "TARGET ENTITY": "human Factor XI mRNA",
    "OBSERVED": 69
  },
  {
    "SUBSTANCE": "417000 (antisense eT*eG*d[5mC]*dA*d[5mC]*dA*dG*dT*dT*dT*d[5mC]*dT*dG*dG*d[5mC]*eA*eG*eG*e[5mC]*e[5mC]) [compound 417000]",
    "TARGET ENTITY": "human Factor XI mRNA",
    "OBSERVED": 58
  },
  {
    "SUBSTANCE": "416984 (antisense e[5mC]*eA*dA*d[5mC]*d[5mC]*dG*dG*dG*dA*dT*dG*dA*dT*dG*dA*eG*eT*eG*e[5mC]*eA) [compound 416984]",
    "TARGET ENTITY": "human Factor XI mRNA",
    "OBSERVED": 62
  },
  {
    "SUBSTANCE": "416864 (antisense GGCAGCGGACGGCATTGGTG; 5-10-5 gapmer, wing sugar chemistry not given here, further chemistry not given here) [compound 416864]",
    "TARGET ENTITY": "human Factor XI mRNA",
    "OBSERVED": 62
  },
  {
    "SUBSTANCE": "416925 (antisense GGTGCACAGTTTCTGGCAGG; 3-14-3 chimeric gapmer, wing sugar chemistry not given here, further chemistry not given here) [compound 416925]",
    "TARGET ENTITY": "human Factor XI mRNA",
    "OBSERVED": 59
  }
]
